Biological target: GPR39 receptors on m39-20 cell lines (Mus musculus, UniProt Q5U431, T447P)
Construct: P2A-mCherry (C); expressed in transfected cells
Sequence (Q5U431 1-456 T447P): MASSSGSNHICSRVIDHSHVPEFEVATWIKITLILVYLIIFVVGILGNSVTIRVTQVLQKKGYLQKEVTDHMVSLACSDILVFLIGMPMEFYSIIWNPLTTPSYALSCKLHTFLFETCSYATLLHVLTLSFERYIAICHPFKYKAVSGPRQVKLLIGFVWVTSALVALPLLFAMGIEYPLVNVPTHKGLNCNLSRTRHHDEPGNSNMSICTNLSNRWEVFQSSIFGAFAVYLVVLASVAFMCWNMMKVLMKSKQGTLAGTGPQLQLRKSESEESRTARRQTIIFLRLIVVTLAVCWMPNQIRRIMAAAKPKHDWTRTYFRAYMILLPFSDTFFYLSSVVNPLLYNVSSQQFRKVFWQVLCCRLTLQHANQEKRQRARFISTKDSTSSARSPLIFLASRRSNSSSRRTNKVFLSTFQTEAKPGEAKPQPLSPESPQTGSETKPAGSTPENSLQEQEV
Test: FLIPR calcium imaging on m39-20 cell lines stably expressing murine-derived GPR39
Type: cell-based
Conditions: activation efficacy, m39-20 cells, 4 μM zinc ions
measurement.name: Bile acid + 4 μM zinc ions Efficacy

Consider the following illustrative entries.
INSERT INTO assay_data (compound, assay_target, measurement_name, value) VALUES
  ('C[C@H](CCC(=O)NCC(=O)O)[C@H]1CC[C@H]2[C@@H]3[C@H](O)C[C@@H]4C[C@H](OS(=O)(=O)O)CC[C@]4(C)[C@H]3CC[C@]12C [GCDCAS]', 'GPR39 receptors on m39-20 cell lines (Mus musculus, UniProt Q5U431, T447P)', 'Bile acid + 4 μM zinc ions Efficacy', '58.6 ± 2%'),
  ('C[C@H](CCC(=O)NCC(=O)O)[C@H]1CC[C@H]2[C@@H]3CC[C@@H]4C[C@H](O)CC[C@]4(C)[C@H]3CC[C@]12C [GLCA]', 'GPR39 receptors on m39-20 cell lines (Mus musculus, UniProt Q5U431, T447P)', 'Bile acid + 4 μM zinc ions Efficacy', '74 ± 4.1%'),
  ('C[C@H](CCC(=O)NCCS(=O)(=O)O)[C@H]1CC[C@H]2[C@@H]3[C@@H](O)C[C@@H]4C[C@H](OS(=O)(=O)O)CC[C@]4(C)[C@H]3CC[C@]12C [TUDCAS]', 'GPR39 receptors on m39-20 cell lines (Mus musculus, UniProt Q5U431, T447P)', 'Bile acid + 4 μM zinc ions Efficacy', '31.4 ± 3.2%');

I have 5 compounds here; please give me Bile acid + 4 μM zinc ions Efficacy for each one.
1. C[C@H](CCC(=O)NCC(=O)O)[C@H]1CC[C@H]2[C@@H]3CC[C@@H]4C[C@H](OS(=O)(=O)O)CC[C@]4(C)[C@H]3CC[C@]12C [GLCAS]
2. C[C@H](CCC(=O)NCC(=O)O)[C@H]1CC[C@H]2[C@@H]3CC[C@@H]4C[C@H](O)CC[C@]4(C)[C@H]3C[C@H](O)[C@]12C [GDCA]
3. C[C@H](CCC(=O)NCCS(=O)(=O)O)[C@H]1CC[C@H]2[C@@H]3CC[C@@H]4C[C@H](O)CC[C@]4(C)[C@H]3C[C@H](O)[C@]12C [TDCA]
4. C[C@H](CCC(=O)O)[C@H]1CC[C@H]2[C@@H]3CC[C@@H]4C[C@H](OS(=O)(=O)O)CC[C@]4(C)[C@H]3C[C@H](O)[C@]12C [DCAS]
5. C[C@H](CCC(=O)O)[C@H]1CC[C@H]2[C@@H]3[C@@H](O)C[C@@H]4C[C@H](OS(=O)(=O)O)CC[C@]4(C)[C@H]3CC[C@]12C [UDCAS]

## Result
["110.8 ± 4.1%", "86.4 ± 6.3%", "99.3 ± 1.7%", "81.9 ± 2.2%", "84.7 ± 2.4%"]

## Task Which Bile acid + 4 μM zinc ions Efficacy reading was recorded for the compound C[C@H](CCC(=O)O)[C@H]1CC[C@H]2[C@@H]3CC[C@@H]4C[C@H](O)CC[C@]4(C)[C@H]3C[C@H](O)[C@]12C [DCA, Deoxycholic acid] ?
## Result 93.1 ± 1.4%
